- System: EKVX
- PROTOCOL DETAILS: NCI tumour cell line growth inhibition, 48 h
Activity calls are given as the source filed them. Rule as the data show it: active = GI50 up to about 1.1 µM and inactive = higher.

| COMPOUND | GI50 |
| --- | --- |
| CN(C)CCCN1c2ccc([N+](=O)[O-])cc2CCc2cc([N+](=O)[O-])ccc21 | 14.1 µM (inactive) |
| CC(=O)NCCC1CN(C(=O)/C=C\I)c2ccccc21 (stereo not given) | 17.3 µM (inactive) |
| Cc1nc2ccccc2[nH]/c1=N/Nc1ccccc1 | 4.17 µM (inactive) |
| C=C1C(=O)[C@]23C[C@H]1C[C@@H](O)[C@H]2[C@]1(COC3=O)[C@@H](OC(C)=O)CC[C@@](C)(COC(C)=O)[C@H]1C=O | > 50 µM (inactive) |
| O=[N+]([O-])C(=C(c1ccccc1)c1ccccc1)[N+](=O)[O-] | > 10 µM (inactive) |
